Reference source: ChEMBL document CHEMBL4613293

Test system: dengue virus type 3
TEST_NAME: Antiviral activity against Dengue virus 3 infected in human HuH7 cells assessed as reduction in virus replication incubated for 48 hrs by plaque reduction assay
Type: functional, organism-based
RECORDED_CONDITIONS: Huh-7, 48 h
QUANTITY_MEASURED: pEC50
To interpret pEC50, take it as minus log10 of a concentration measured in moles per litre.

Below, 2 compounds whose answers are already recorded.
O=C(O)CCNC(=O)c1cc(-c2ccccc2)c(=O)n2c1sc1ccc(OC3CCCCC3)cc12 : 5.11
O=C(N[C@@H](Cc1cccc(O)c1)C(=O)O)c1cc(-c2ccccc2)c(=O)n2c1sc1ccc(OC3CCCCC3)cc12 : 5.37

Now look at this entry.
Observed pEC50, dengue virus type 3, `O=C(N[C@@H](Cc1ccc(O)cc1)C(=O)O)c1cc(-c2ccccc2)c(=O)n2c1sc1ccc(OC3CCCCC3)cc12` : 5.55

====

TEST_NAME: Cytotoxicity against human HuH7 cells assessed as reduction in cell viability incubated for 48 hrs by CellTiter Glo Luminescent assay
Type: cell-based, Huh-7
QUANTITY_MEASURED: CC50 at 48 h (µM)
State just the number; it will be interpreted in µM.

C#C[C@@]1(O)[C@H](O)[C@@H](CO)O[C@H]1n1ccc2c(N)ncnc21 : 100
O=C(NCCO)c1cc(-c2ccccc2)c(=O)n2c1sc1ccc(OC3CCCCC3)cc12 : 86.3

# evaluate next
Entry under test: `O=C(N[C@@H](Cc1ccc(O)cc1)C(=O)O)c1cc(-c2ccccc2)c(=O)n2c1sc1ccc(OC3CCCCCC3)cc12` . Its CC50 at 48 h was 100

====

System: dengue virus type 1
TEST_NAME: Antiviral activity against Dengue virus 1 infected in human HuH7 cells assessed as reduction in virus replication incubated for 48 hrs by plaque reduction assay
Assay type: functional, organism-based
RECORDED_CONDITIONS: Huh-7, 48 h
QUANTITY_MEASURED: EC50 (µM)
Your answer should be a plain number; it is taken to be in µM.

Please review the following examples before continuing.
O=C(N[C@@H](Cc1ccc(O)cc1)C(=O)O)c1cc(-c2ccccc2)c(=O)n2c1sc1ccc(OC3CCCCC3)cc12 : 2.8
O=C(O)CCNC(=O)c1cc(-c2ccccc2)c(=O)n2c1sc1ccc(OC3CCCCC3)cc12 : 7

// next item, EC50 requested
`O=C(N[C@@H](Cc1cccc(O)c1)C(=O)O)c1cc(-c2ccccc2)c(=O)n2c1sc1ccc(OC3CCCCC3)cc12` tested on dengue virus type 1 gave EC50: 3.2

====

TEST_NAME: Selectivity index, ratio of CC50 for human HuH7 cells to EC50 for Zika virus H/PF/2013 infected in human HuH7 cells
Type: toxicity, cell-based
RECORDED_CONDITIONS: read-out: Ratio CC50/EC50
QUANTITY_MEASURED: selectivity ratio

O=C(N[C@@H](Cc1ccc(O)cc1)C(=O)O)c1cc(-c2ccccc2)c(=O)n2c1sc1ccc(OC3CCCCC3)cc12 : > 100
O=C(NCCO)c1cc(-c2ccccc2)c(=O)n2c1sc1ccc(OC3CCCCC3)cc12 : 43
O=C(O)CCNC(=O)c1cc(-c2ccccc2)c(=O)n2c1sc1ccc(OC3CCCCC3)cc12 : > 100
O=C(N[C@@H](Cc1cccc(O)c1)C(=O)O)c1cc(-c2ccccc2)c(=O)n2c1sc1ccc(OC3CCCCC3)cc12 : > 100
O=C(NCc1ccc(O)cc1)c1cc(-c2ccccc2)c(=O)n2c1sc1ccc(OC3CCCCC3)cc12 : > 100
O=C(N[C@@H](Cc1ccc(O)cc1)C(=O)O)c1cc(-c2ccccc2)c(=O)n2c1sc1ccc(OC3CCCCCC3)cc12 : > 50

Here is the next item to consider.
Summary for this compound, `C#C[C@@]1(O)[C@H](O)[C@@H](CO)O[C@H]1n1ccc2c(N)ncnc21` : selectivity ratio is > 100

====

TEST_NAME: Inhibition of Dengue virus full length NS2b-NS3/NS5 interaction incubated for 1 hr by ELISA
QUANTITY_MEASURED: IC50 (µM)
Value expressed in µM; do not type the unit.

O=C(N[C@@H](Cc1cccc(O)c1)C(=O)O)c1cc(-c2ccccc2)c(=O)n2c1sc1ccc(OC3CCCCC3)cc12 : 18.1
O=C(N[C@@H](Cc1ccc(O)cc1)C(=O)O)c1cc(-c2ccccc2)c(=O)n2c1sc1ccc(OC3CCCCCC3)cc12 : 33.8
O=C(N[C@@H](Cc1ccc(O)cc1)C(=O)O)c1cc(-c2ccccc2)c(=O)n2c1sc1ccc(OC3CCCCC3)cc12 : 42.4

Briefly, IC50 measured for `O=C(O)CCNC(=O)c1cc(-c2ccccc2)c(=O)n2c1sc1ccc(OC3CCCCC3)cc12` : 23.7

====

Tested on: dengue virus type 2
TEST_NAME: Antiviral activity against Dengue virus 2 EDEN 3295 clone 4_R infected in human HuH7 cells assessed as reduction in viral titer over 10 passages incubated for 72 hrs by resistance development assay
Assay type: functional, organism-based
RECORDED_CONDITIONS: EDEN 3295, Huh-7, 72 h
QUANTITY_MEASURED: EC50 (µM)
Give just the number in µM; leave the unit off.

Per the records, this molecule ( `O=C(O)CCNC(=O)c1cc(-c2ccccc2)c(=O)n2c1sc1ccc(OC3CCCCC3)cc12` ) has EC50 equal to 11.4

====

TEST_NAME: Selectivity index, ratio of CC50 for human HuH7 cells to EC50 for Dengue virus 2 EDEN 3295 infected in human HuH7 cells
Format: toxicity, cell-based
RECORDED_CONDITIONS: read-out: Ratio CC50/EC50
QUANTITY_MEASURED: selectivity ratio
Kindly provide the number alone.

O=C(NCCO)c1cc(-c2ccccc2)c(=O)n2c1sc1ccc(OC3CCCCC3)cc12 : 43
O=C(N[C@@H](Cc1ccc(O)cc1)C(=O)O)c1cc(-c2ccccc2)c(=O)n2c1sc1ccc(OC3CCCCCC3)cc12 : 30

// switching to the query molecule
Quick note, selectivity ratio for `C#C[C@@]1(O)[C@H](O)[C@@H](CO)O[C@H]1n1ccc2c(N)ncnc21` landed at 100

====

TEST_NAME: Inhibition of Dengue virus NS5 RNA-dependent RNA polymerase assessed as reduction in elongation activity incubated for 1 hr
Design: species or system dengue virus type 2
Measured IC50, listed per entry for reference.
Kindly provide the numeric value in µM only, without the unit symbol.

Example entries begin here.
O=C(N[C@@H](Cc1cccc(O)c1)C(=O)O)c1cc(-c2ccccc2)c(=O)n2c1sc1ccc(OC3CCCCC3)cc12 : 14.5
O=C(N[C@@H](Cc1ccc(O)cc1)C(=O)O)c1cc(-c2ccccc2)c(=O)n2c1sc1ccc(OC3CCCCCC3)cc12 : 9.62
O=C(N[C@@H](CO)C(=O)O)c1cc(-c2ccccc2)c(=O)n2c1sc1ccc(OC3CCCCC3)cc12 : 19.8
O=C(N[C@@H](Cc1ccc(O)cc1)C(=O)O)c1cc(-c2ccccc2)c(=O)n(-c2cccc(OC3CCCCC3)c2)c1 : 81.3
O=C(N[C@@H](Cc1ccc(O)cc1)C(=O)O)c1cc(-c2ccccc2)c(=O)n2c1sc1ccc(OC3CCCCC3)cc12 : 9.16

# next molecule below
// IC50 value for `O=C(O)CCNC(=O)c1cc(-c2ccccc2)c(=O)n2c1sc1ccc(OC3CCCCC3)cc12` : 37.8

====

Tested on: dengue virus type 2
TEST_NAME: Inhibition of Dengue virus NS5 RNA-dependent RNA polymerase assessed as reduction in de novo initiation activity at 30 uM incubated for 1 hr relative to control
QUANTITY_MEASURED: inhibition (%)
Your answer is read as %, so omit the unit and give the number.

O=C(N[C@@H](Cc1ccc(O)cc1)C(=O)O)c1cc(-c2ccccc2)c(=O)n2c1sc1ccc(OC3CCCCC3)cc12 : 40.7
O=C(N[C@@H](Cc1cccc(O)c1)C(=O)O)c1cc(-c2ccccc2)c(=O)n2c1sc1ccc(OC3CCCCC3)cc12 : 12.6
O=C(N[C@@H](Cc1ccc(O)cc1)C(=O)O)c1cc(-c2ccccc2)c(=O)n(-c2cccc(OC3CCCCC3)c2)c1 : 36.4
O=C(N[C@@H](CO)C(=O)O)c1cc(-c2ccccc2)c(=O)n2c1sc1ccc(OC3CCCCC3)cc12 : 44.8
Cn1cc(C(=O)N[C@@H](Cc2ccc(O)cc2)C(=O)O)cc(-c2ccccc2)c1=O : 35.6
O=C(NCCO)c1cc(-c2ccccc2)c(=O)n2c1sc1ccc(OC3CCCCC3)cc12 : 10

// returns inhibition for `O=C(N[C@@H](Cc1ccc(O)cc1)C(=O)O)c1cc(-c2ccccc2)c(=O)n2c1sc1ccc(OC3CCCCCC3)cc12` with dengue virus type 2; value = 30.5

====

Test system: dengue virus type 2
TEST_NAME: Inhibition of Dengue virus NS5 RNA-dependent RNA polymerase assessed as reduction in elongation activity at 30 uM incubated for 1 hr relative to control
Note that class boundaries on inhibition are low end (below 60%), middle (60% to below 90%), high end (90% or more)

Take a look at these entries with their results.
O=C(N[C@@H](Cc1ccc(O)cc1)C(=O)O)c1cc(-c2ccccc2)c(=O)n(-c2cccc(OC3CCCCC3)c2)c1 : middle
O=C(NCCO)c1cc(-c2ccccc2)c(=O)n2c1sc1ccc(OC3CCCCC3)cc12 : middle

## Task Category of `Cn1cc(C(=O)N[C@@H](Cc2ccc(O)cc2)C(=O)O)cc(-c2ccccc2)c1=O` :
## Result middle

## Task Category lookup for the compound `O=c1c(-c2ccccc2)ccc2sc3ccc(OC4CCCCC4)cc3n12`
## Result low end

## Task Determine which band this compound sits in: `O=C(N[C@@H](CO)C(=O)O)c1cc(-c2ccccc2)c(=O)n2c1sc1ccc(OC3CCCCC3)cc12`
## Result high end

## Task Textbook exercise: identify the category of the compound given here, `O=C(O)CCNC(=O)c1cc(-c2ccccc2)c(=O)n2c1sc1ccc(OC3CCCCC3)cc12` , according to its measured value.
## Result middle

## Task Could you tell me which band `O=C(NCc1ccc(O)cc1)c1cc(-c2ccccc2)c(=O)n2c1sc1ccc(OC3CCCCC3)cc12` belongs to?
## Result low end
